B1: glmS ribozyme (parent)
chain: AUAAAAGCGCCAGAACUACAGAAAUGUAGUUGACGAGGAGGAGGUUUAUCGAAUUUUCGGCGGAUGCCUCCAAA

# Variants of: B1
# MEASUREMENT DESCRIPTION: kcat; higher = faster cleavage; RNA array
# REPORTED CONDITIONS: with glucosamine-6-phosphate
Variants at the floor of the assay were thinned out.
Decide by kcat: equal to or exceeding 0.0007 s⁻¹ means label 1, less means label 0.

A52G G59A ... label 0
U49C C71A ... label 0
A6U G66U ... label 0

Please indicate if the recorded kcat for C34A G38U meets or exceeds 0.0007 s⁻¹. label 0

kcat >= 0.0007 s⁻¹ for U54G U56A G63C ? label 0

Kindly determine if kcat recorded for A15U U31G C71U is above or exactly 0.0007 s⁻¹. label 0

Evaluate A6G A42G : kcat at minimum 0.0007 s⁻¹? label 1

Please indicate if the recorded kcat for A64G meets or exceeds 0.0007 s⁻¹. label 1

Hi team, for G7U G60A , is the recorded kcat at or above 0.0007 s⁻¹? label 0

Answer whether kcat of U45A A64G is greater than or equal to 0.0007 s⁻¹. label 1

Determine whether measured kcat meets or exceeds 0.0007 s⁻¹ for C11U C16G label 0

Please indicate if the recorded kcat for G32U A53U meets or exceeds 0.0007 s⁻¹. label 1

Could you verify whether the entry C68U U69G shows kcat of no less than 0.0007 s⁻¹? label 0

Dear colleague, could you confirm whether G29U A64U has kcat at or above 0.0007 s⁻¹? label 0

Entry source: the supplement of paper PMC7125110
